targetDesc: Serine/threonine-protein kinase NLK (Homo sapiens) (UniProt Q9UBE8)
Sequence (Q9UBE8 whole entry): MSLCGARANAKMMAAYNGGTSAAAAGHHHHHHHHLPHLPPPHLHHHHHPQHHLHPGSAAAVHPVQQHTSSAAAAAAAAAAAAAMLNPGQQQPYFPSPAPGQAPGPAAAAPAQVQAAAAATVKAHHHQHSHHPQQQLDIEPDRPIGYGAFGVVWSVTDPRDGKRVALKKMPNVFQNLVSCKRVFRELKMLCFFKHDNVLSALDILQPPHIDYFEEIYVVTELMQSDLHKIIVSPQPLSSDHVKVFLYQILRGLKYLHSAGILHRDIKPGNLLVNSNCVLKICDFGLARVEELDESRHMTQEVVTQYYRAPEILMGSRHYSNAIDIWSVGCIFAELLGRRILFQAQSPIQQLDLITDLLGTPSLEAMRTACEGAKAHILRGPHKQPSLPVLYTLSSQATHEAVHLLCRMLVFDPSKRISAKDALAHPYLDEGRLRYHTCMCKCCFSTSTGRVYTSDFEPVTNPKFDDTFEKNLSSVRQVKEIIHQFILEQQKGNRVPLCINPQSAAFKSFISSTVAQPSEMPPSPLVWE
setupConditions: at 10 µM
measuredAttribute: residual activity (%)
Form entry: value (%) — number only.

// known answers, use as guide
compound	unitAbbrev	readoutValue
O=C1Nc2ccccc2/C1=C1/Nc2ccccc2/C1=N\OCCC(O)CO (configuration not stated)	%	70
Cn1cnc2cc3c(Nc4cccc(Br)c4)ncnc3cc21	%	73
Oc1ccc(Nc2nc(-c3ccc(Cl)cc3)cs2)cc1	%	74
CC#CC(=O)Nc1cc2c(Nc3ccc(F)c(Cl)c3)ncnc2cn1	%	79
O=C1NC(=O)/C(=C/c2ccc3c(c2)OC(F)(F)O3)S1	%	84

Q) Print Serine/threonine-protein kinase NLK (Homo sapiens) (UniProt Q9UBE8) residual activity for `C[C@@H](N)[C@H]1CC[C@H](C(=O)Nc2ccncc2)CC1` .
A) 101

Q) Print Serine/threonine-protein kinase NLK (Homo sapiens) (UniProt Q9UBE8) residual activity for `O=C1NC(=O)/C(=C\c2ccc3nccnc3c2)S1` .
A) 55

Q) Print Serine/threonine-protein kinase NLK (Homo sapiens) (UniProt Q9UBE8) residual activity for `CC[n+]1c(/C=C/N(C)c2ccccc2)n(-c2ccccc2)c2ccc(-c3nc4ccccc4s3)cc21` .
A) 89

Q) Print Serine/threonine-protein kinase NLK (Homo sapiens) (UniProt Q9UBE8) residual activity for `Oc1n[nH]c2nnc(-c3c(-c4ccccc4)nn4ccccc34)cc12` .
A) 86

Q) Print Serine/threonine-protein kinase NLK (Homo sapiens) (UniProt Q9UBE8) residual activity for `CC(=O)c1ccc(N2CCOCC2)cc1O` .
A) 83

Q) Print Serine/threonine-protein kinase NLK (Homo sapiens) (UniProt Q9UBE8) residual activity for `c1ccc(-c2n[nH]c3c2oc2ccccc23)cc1` .
A) 85

Q) Print Serine/threonine-protein kinase NLK (Homo sapiens) (UniProt Q9UBE8) residual activity for `N#Cc1cnc2cnc(NCc3cccnc3)cc2c1Nc1ccc(F)c(Cl)c1` .
A) 89

====

targetDesc: Aurora kinase C (Homo sapiens) (UniProt Q9UQB9)
Sequence (Q9UQB9 whole entry): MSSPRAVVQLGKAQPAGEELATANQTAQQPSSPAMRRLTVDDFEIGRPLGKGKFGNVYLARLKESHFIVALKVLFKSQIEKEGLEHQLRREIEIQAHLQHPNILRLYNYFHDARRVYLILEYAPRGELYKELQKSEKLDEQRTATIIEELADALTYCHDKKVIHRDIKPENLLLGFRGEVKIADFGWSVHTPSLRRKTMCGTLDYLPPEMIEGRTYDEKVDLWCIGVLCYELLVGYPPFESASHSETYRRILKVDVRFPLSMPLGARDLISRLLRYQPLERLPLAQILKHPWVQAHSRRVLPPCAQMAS
setupConditions: at 10 µM
Is residual activity at least 70%? Then Condition met. If not, Condition not met.

Field: example entries. Status: answers known.
smilesStr	targetDesc	classAssignment
CC(C)n1cnc2c(NCc3ccccc3)nc(NCCCO)nc21	Aurora kinase C (Homo sapiens) (UniProt Q9UQB9)	Condition met
Cn1cnc2cc3c(Nc4cccc(Br)c4)ncnc3cc21	Aurora kinase C (Homo sapiens) (UniProt Q9UQB9)	Condition not met
N#C/C(=C(\N)Sc1ccc(N)cc1)c1ccccc1C(F)(F)F	Aurora kinase C (Homo sapiens) (UniProt Q9UQB9)	Condition met
Cc1cccc(-c2[nH]c(C(C)(C)C)nc2-c2ccc3c(c2)OCO3)n1	Aurora kinase C (Homo sapiens) (UniProt Q9UQB9)	Condition met

Q) Confirm if residual activity reported for the compound `Cc1cc2ncc(-c3ccccc3)nc2cc1C` is 70% or above.
A) Condition met

Q) Confirm if residual activity reported for the compound `CNc1cc2c(Nc3cccc(Br)c3)ncnc2cn1` is 70% or above.
A) Condition not met

====

targetDesc: Serine/threonine-protein kinase 17A (Homo sapiens) (UniProt Q9UEE5)
Sequence (Q9UEE5 whole entry): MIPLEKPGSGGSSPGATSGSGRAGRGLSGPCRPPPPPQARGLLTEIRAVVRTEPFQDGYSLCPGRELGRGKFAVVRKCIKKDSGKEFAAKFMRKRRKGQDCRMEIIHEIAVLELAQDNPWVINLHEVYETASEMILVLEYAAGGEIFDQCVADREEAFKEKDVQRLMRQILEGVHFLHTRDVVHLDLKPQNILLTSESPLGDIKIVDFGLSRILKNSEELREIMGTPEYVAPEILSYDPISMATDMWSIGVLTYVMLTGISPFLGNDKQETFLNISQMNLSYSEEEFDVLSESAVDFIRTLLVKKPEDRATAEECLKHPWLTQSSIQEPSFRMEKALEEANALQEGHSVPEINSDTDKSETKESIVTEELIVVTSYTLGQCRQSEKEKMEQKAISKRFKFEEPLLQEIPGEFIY
setupConditions: at 1 µM
Reported residual activity values follow for various compounds
Form entry: value (%) — number only.

compound	unitAbbrev	residual activity
O=C1Nc2ccccc2/C1=C1/Nc2ccccc2/C1=N\OCCC(O)CO (stereo not drawn)	%	5
COc1cc2ncnc(Nc3ccc(O)c(Br)c3)c2cc1OC	%	77
O=C(Nc1cccc(Nc2cc(Nc3cccc(C(F)(F)F)c3)ncn2)c1)C1CC1	%	81
O=C1Nc2cc(Br)ccc2/C1=C1/Nc2ccccc2/C1=N\O	%	8

Q) Return the recorded residual activity value; entry: `COc1cc2ncc(-c3ccccc3)nc2cc1OC`
A) 124

Q) Return the recorded residual activity value; entry: `O=c1cc(-c2cccc3c2Sc2ccccc2S3)oc(N2CCOCC2)c1`
A) 106

Q) Return the recorded residual activity value; entry: `CC(=O)O/N=C1\C(=C2\C(=O)Nc3cc(Br)ccc32)Nc2ccccc21`
A) 63

Q) Return the recorded residual activity value; entry: `N#C/C(=C(\N)Sc1ccc(N)cc1)c1ccccc1C(F)(F)F`
A) 96

Q) Return the recorded residual activity value; entry: `CNc1cc2c(Nc3cccc(Br)c3)ncnc2cn1`
A) 64

Q) Return the recorded residual activity value; entry: `Nc1nc(Nc2ccc(S(N)(=O)=O)cc2)nn1C(=S)Nc1c(F)cccc1F`
A) 1

Q) Return the recorded residual activity value; entry: `Cc1cc2ncc(-c3ccccc3)nc2cc1C`
A) 70

Q) Return the recorded residual activity value; entry: `O=C1Nc2ccc(Br)cc2/C1=C\c1cc2c([nH]1)CCCC2`
A) 48

Q) Return the recorded residual activity value; entry: `N#CCCc1ccc2c(c1)-c1[nH]c3ccc([N+](=O)[O-])cc3c1CC(=O)N2`
A) 11

====

Reported residual activity values follow for various compounds
targetDesc: Myosin light chain kinase, smooth muscle (Homo sapiens)
setupConditions: at 10 µM
Dear colleague, please send the value followed by its unit.

// known answers, use as guide
smilesStr	residual activity
CC(C)n1cnc2c(NCc3ccccc3)nc(NCCCO)nc21	74%
Cc1nc(-c2ccccc2)c(-c2ccncc2)o1	88%
c1ccc(-c2n[nH]c3c2oc2ccccc23)cc1	64%
CO[C@@H]1[C@H](N(C)C(=O)c2ccccc2)C[C@H]2O[C@]1(C)n1c3ccccc3c3c4c(c5c6ccccc6n2c5c31)C(=O)NC4	10%

In the following, a different compound is considered.
Q) Return the recorded residual activity value; entry: `Cc1nc2cc3nc(-c4cccs4)cnc3cc2n1C`
A) 105%

====

targetDesc: Platelet-derived growth factor receptor alpha (Homo sapiens)
setupConditions: at 1 µM
Reported residual activity values follow for various molecules
Dear colleague, please send the value followed by its unit.

// known answers, use as guide
smilesStr	readoutValue
Cc1ccc(S(=O)(=O)/C=C/C#N)cc1	100%
CC(=O)O/N=C1\C(=C2\C(=O)Nc3cc(Br)ccc32)Nc2ccccc21	102%
COc1cc2ncc(-c3ccccc3)nc2cc1OC	84%

Q) Return the recorded residual activity value; entry: `O=C1NC(=O)c2cc(Nc3ccc(F)cc3)c(Nc3ccc(F)cc3)cc21`
A) 115%

Q) Return the recorded residual activity value; entry: `CC(C)n1cnc2c(NCc3ccccc3)nc(NCCCO)nc21`
A) 105%

Q) Return the recorded residual activity value; entry: `O=C(Nc1cccc(Nc2nccc(Nc3cccc(C(F)(F)F)c3)n2)c1)C1CC1`
A) 107%

====

targetDesc: Myosin light chain kinase, smooth muscle (Homo sapiens) (UniProt Q15746)
Sequence (Q15746 whole entry): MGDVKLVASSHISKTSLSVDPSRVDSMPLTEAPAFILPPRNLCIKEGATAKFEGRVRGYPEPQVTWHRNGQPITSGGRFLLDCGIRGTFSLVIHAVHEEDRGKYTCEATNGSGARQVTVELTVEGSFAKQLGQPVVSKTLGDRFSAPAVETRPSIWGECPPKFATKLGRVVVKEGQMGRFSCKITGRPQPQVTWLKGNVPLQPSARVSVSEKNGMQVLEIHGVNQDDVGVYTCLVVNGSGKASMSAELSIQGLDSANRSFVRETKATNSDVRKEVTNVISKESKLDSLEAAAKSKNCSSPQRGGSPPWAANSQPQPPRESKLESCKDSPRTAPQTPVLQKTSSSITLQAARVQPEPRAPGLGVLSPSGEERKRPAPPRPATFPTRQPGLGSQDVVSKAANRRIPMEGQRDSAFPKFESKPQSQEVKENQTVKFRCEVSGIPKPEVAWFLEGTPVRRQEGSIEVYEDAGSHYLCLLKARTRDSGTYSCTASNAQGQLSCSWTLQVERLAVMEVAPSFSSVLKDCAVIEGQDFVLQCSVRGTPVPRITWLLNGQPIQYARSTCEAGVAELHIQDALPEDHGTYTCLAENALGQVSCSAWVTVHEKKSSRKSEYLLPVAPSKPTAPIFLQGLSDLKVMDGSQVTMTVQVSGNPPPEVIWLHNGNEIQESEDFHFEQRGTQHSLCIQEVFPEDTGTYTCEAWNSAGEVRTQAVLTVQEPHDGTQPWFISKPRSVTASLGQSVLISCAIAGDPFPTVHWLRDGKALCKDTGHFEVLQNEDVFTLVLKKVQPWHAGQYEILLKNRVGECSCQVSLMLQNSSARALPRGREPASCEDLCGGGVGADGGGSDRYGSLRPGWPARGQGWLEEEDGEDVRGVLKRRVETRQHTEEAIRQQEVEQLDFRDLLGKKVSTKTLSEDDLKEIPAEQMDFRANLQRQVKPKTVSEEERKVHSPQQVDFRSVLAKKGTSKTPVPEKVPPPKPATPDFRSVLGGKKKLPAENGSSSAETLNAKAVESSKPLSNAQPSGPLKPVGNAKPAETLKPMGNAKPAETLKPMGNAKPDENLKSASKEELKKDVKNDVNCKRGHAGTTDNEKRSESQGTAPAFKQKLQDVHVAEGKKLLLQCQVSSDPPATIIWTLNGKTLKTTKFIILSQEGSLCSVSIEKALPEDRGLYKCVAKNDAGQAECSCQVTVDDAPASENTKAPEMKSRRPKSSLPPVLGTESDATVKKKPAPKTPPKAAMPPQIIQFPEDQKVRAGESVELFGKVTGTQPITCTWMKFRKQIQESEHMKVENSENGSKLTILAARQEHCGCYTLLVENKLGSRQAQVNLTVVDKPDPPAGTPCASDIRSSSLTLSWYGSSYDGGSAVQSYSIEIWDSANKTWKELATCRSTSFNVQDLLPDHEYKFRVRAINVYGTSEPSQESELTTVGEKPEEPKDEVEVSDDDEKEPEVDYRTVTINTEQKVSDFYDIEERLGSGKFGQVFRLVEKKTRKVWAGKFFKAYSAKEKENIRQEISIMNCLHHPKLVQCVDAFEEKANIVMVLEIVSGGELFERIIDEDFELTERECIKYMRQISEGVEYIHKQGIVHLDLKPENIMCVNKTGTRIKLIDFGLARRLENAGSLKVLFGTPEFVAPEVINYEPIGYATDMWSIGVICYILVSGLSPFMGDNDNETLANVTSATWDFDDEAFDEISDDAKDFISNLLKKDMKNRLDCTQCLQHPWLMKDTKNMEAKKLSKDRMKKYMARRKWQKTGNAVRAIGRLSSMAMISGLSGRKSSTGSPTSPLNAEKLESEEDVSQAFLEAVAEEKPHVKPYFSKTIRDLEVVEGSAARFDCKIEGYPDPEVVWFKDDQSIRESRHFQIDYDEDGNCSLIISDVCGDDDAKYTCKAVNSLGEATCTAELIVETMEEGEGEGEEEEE
setupConditions: at 10 µM
Is residual activity at least 70%? Then Y. If not, N.

Field: example entries. Status: answers known.
smilesStr	targetDesc	classAssignment
Cn1cc(/C=C2\C(=O)Nc3ccc(S(N)(=O)=O)cc32)c2ccccc21	Myosin light chain kinase, smooth muscle (Homo sapiens) (UniProt Q15746)	Y
CO[C@H]1C[C@@H]2CC[C@@H](C)[C@@](O)(O2)C(=O)C(=O)N2CCCC[C@H]2C(=O)O[C@H]([C@H](C)C[C@@H]2CC[C@@H](O)[C@H](OC)C2)CC(=O)[C@H](C)/C=C(\C)[C@@H](O)[C@@H](OC)C(=O)[C@H](C)C[C@H](C)/C=C/C=C/C=C/1C	Myosin light chain kinase, smooth muscle (Homo sapiens) (UniProt Q15746)	Y

Q) Confirm if residual activity reported for the compound `O=C1c2ccccc2-[n+]2ccc3c([nH]c4ccccc43)c21` is 70% or above.
A) Y

Q) Confirm if residual activity reported for the compound `COc1cc2ncnc(N3CCN(C(=O)Nc4ccc(Oc5ccccc5)cc4)CC3)c2cc1OC` is 70% or above.
A) Y

Q) Confirm if residual activity reported for the compound `Nc1ccc2ncnc(NCCc3ccc(Oc4ccccc4)cc3)c2c1` is 70% or above.
A) N

Q) Confirm if residual activity reported for the compound `CCOc1cc2ncnc(Nc3cccc(Br)c3)c2cc1OCC` is 70% or above.
A) N

Q) Confirm if residual activity reported for the compound `O=C1Nc2cc(Br)ccc2/C1=C1/Nc2ccccc2/C1=N\O` is 70% or above.
A) N

Q) Confirm if residual activity reported for the compound `Oc1n[nH]c2nnc(-c3c(-c4ccccc4)nn4ccccc34)cc12` is 70% or above.
A) N

Q) Confirm if residual activity reported for the compound `O=C(O)c1ccc2c3c1cccc3c(=O)n1c3ccccc3nc21` is 70% or above.
A) N

Q) Confirm if residual activity reported for the compound `O=Nc1c(-c2c(O)[nH]c3ccccc23)[nH]c2ccccc12` is 70% or above.
A) N

Q) Confirm if residual activity reported for the compound `c1ccc2c(-c3ccncc3)c[nH]c2c1` is 70% or above.
A) N

====

targetDesc: Serine/threonine-protein kinase pim-1 (Homo sapiens) (UniProt P11309)
Sequence (P11309 whole entry, looked up): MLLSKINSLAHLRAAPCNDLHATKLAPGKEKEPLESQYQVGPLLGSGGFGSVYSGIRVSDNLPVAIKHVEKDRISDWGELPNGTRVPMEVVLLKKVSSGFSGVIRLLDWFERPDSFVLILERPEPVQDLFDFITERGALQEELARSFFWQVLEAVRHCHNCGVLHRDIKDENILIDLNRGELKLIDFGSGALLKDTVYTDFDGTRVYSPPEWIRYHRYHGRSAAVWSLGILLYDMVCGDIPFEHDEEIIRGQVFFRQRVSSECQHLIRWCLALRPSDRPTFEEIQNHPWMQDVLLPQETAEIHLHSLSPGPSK
setupConditions: at 1 µM
Reported residual activity values follow for various molecules
Form entry: value (%) — number only.

molecule	targetDesc	residual activity, %
O=C(Nc1cccc(Nc2nccc(Nc3cccc(C(F)(F)F)c3)n2)c1)C1CC1	Serine/threonine-protein kinase pim-1 (Homo sapiens) (UniProt P11309)	66
O=C1Nc2ccccc2/C1=C1/Nc2ccccc2/C1=N\OCCC(O)CO (centres undefined)	Serine/threonine-protein kinase pim-1 (Homo sapiens) (UniProt P11309)	58
Cc1ccc(S(=O)(=O)/C=C/C#N)cc1	Serine/threonine-protein kinase pim-1 (Homo sapiens) (UniProt P11309)	97

In the following, a different molecule is considered.
Q) Print Serine/threonine-protein kinase pim-1 (Homo sapiens) (UniProt P11309) residual activity for `CC(C)n1cnc2/c(=N/c3cccc(Cl)c3)nc(NCCO)[nH]c21` .
A) 115
